System: HOP-62 complex spheroids with HUVEC/MSC, viability
Assay remarks: Anticancer human tumor HOP-62 cell line growth inhibition [RAS];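 note: spheroids exposed to agents for seven days before readout; 100% = DMSO vehicle control viability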
Condition context: second compound 0.1 µM; first compound 0.1 µM; hits give low values
Assay metric: viability, T/C (%)
Number in %, nothing else.

Form: molecule = CC1(O)CCCC1n1c(=O)c(C(F)F)cc2cnc(NC3CCN(S(C)(=O)=O)CC3)nc21 (stereo not given) + C=CC(=O)N1CCN(c2nc(OCC3CCCN3C)nc3c(F)c(-c4nc(N)cc(C)c4C(F)(F)F)c(Cl)cc23)C(C)C1 ; viability, T/C = 40

Record summary for CC(Nc1ccc2c(c1)OCCn1cc(N3C(=O)OCC3C(F)F)nc1-2)C(N)=O (stereo not given) + C#Cc1c(F)ccc2cc(O)cc(-c3ncc4c(N5CC6CCC(C5)N6)nc(OCC56CCCN5CC(F)C6)nc4c3F)c12 : reported viability, T/C = 78.5

Looking up CCC(CC)c1cc(NC2CCC(N)C2)n2nccc2n1 (stereo not given) + C=CC(=O)N1CCN(c2nc(OCC3CCCN3C)nc3c(F)c(-c4nc(N)cc(C)c4C(F)(F)F)c(Cl)cc23)C(C)C1 , I see its viability, T/C listed as 70.5

Measured viability, T/C of CCC(CC)c1cc(NC2CCC(N)C2)n2nccc2n1 (stereo not given) + C#Cc1c(F)ccc2cc(O)cc(-c3ncc4c(N5CC6CCC(C5)N6)nc(OCC56CCCN5CC(F)C6)nc4c3F)c12 : 115

According to the records, this molecule Cc1nc(N2CCC3(CC2)COC(C)C3N)c(CO)nc1Sc1ccnc(N)c1Cl (stereo not given) + C=CC(=O)N1CCN(c2nc(OCC3CCCN3C)nc3c(F)c(-c4nc(N)cc(C)c4C(F)(F)F)c(Cl)cc23)C(C)C1 displays viability, T/C of 41.5

Input CC(C)n1nc(-c2ccc3oc(N)nc3c2)c2c(N)ncnc21 + C=CC(=O)N1CCN(c2nc(OCC3CCCN3C)nc3c(F)c(-c4nc(N)cc(C)c4C(F)(F)F)c(Cl)cc23)C(C)C1 . Output viability, T/C: 14.1

Measured viability, T/C of CC(Nc1ccc2c(c1)OCCn1cc(N3C(=O)OCC3C(F)F)nc1-2)C(N)=O (stereo not given) + C=CC(=O)N1CCN(c2nc(OCC3CCCN3C)nc3c(F)c(-c4nc(N)cc(C)c4C(F)(F)F)c(Cl)cc23)C(C)C1 : 42

Sure, the documented viability, T/C for C[C@@H](NC(=O)c1ncnc(N)c1Cl)c1ncc(C(=O)Nc2cc(C(F)(F)F)c(Cl)cn2)s1 + C=CC(=O)N1CCN(c2nc(OCC3CCCN3C)nc3c(F)c(-c4nc(N)cc(C)c4C(F)(F)F)c(Cl)cc23)C(C)C1 is 68.5

Lookup result for CC(C)NCC(C(=O)N1CCN(c2ncnc3c2C(C)CC3O)CC1)c1ccc(Cl)cc1 (stereo not given) + C=CC(=O)N1CCN(c2nc(OCC3CCCN3C)nc3c(F)c(-c4nc(N)cc(C)c4C(F)(F)F)c(Cl)cc23)C(C)C1 ; measured viability, T/C: 57.8

Input CCN1CCN(Cc2ccc(Nc3ncc(F)c(-c4cc(F)c5nc(C)n(C(C)C)c5c4)n3)nc2)CC1 + C#Cc1c(F)ccc2cc(O)cc(-c3ncc4c(N5CC6CCC(C5)N6)nc(OCC56CCCN5CC(F)C6)nc4c3F)c12 . Output viability, T/C: 91.6
